- Tgt: T1, hCTLA4-His-BAP (human CTLA4 extracellular region with C-terminal His-tag and BAP-tag) (human, biotin on the BAP-tag)
- T1 construct: also called hCTLA4-His-Biotin
- Protocol Description: SPR 37C, ATP 100 µM; ATP 100 µM
Overview of recorded Kd for various binders
Give a bare numeral; the unit nM is implied.

Check out these entries, answers already filled in.
- Binder: "04H1077-G1m/04L1067-lam1 (antibody, human IgG1, lambda, V domains shown) VH: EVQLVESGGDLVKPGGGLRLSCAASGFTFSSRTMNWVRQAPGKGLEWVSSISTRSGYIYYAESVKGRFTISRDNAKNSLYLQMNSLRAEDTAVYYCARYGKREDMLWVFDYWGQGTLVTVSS VL: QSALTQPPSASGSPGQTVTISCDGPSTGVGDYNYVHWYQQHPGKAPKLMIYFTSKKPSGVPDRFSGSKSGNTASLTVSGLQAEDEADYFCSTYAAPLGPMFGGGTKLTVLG"
  Kd (nM): 76
- Binder: "04H1077-G1m/04L1086-lam1 (antibody, human IgG1, lambda, V domains shown) VH: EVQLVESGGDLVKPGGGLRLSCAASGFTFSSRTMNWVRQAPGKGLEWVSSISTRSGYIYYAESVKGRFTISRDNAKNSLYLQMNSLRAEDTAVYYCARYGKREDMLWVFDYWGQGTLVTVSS VL: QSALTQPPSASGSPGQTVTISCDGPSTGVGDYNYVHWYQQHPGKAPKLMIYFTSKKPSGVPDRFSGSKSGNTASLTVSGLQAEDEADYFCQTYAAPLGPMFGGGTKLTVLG"
  Kd (nM): 110
- Binder: "04H1077-G1m/04L1041-lam1 (antibody, human IgG1, lambda, V domains shown) VH: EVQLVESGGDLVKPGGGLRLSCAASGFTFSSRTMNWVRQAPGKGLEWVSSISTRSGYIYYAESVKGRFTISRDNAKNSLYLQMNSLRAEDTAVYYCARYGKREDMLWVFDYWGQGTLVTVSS VL: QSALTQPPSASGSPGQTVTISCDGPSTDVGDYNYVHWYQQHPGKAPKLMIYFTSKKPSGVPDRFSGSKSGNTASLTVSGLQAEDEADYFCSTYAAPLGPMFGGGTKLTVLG"
  Kd (nM): 140

Kindly note the recorded Kd for 04H1207-G1m/04L1086-lam1 (antibody, human IgG1, lambda, V domains shown) VH: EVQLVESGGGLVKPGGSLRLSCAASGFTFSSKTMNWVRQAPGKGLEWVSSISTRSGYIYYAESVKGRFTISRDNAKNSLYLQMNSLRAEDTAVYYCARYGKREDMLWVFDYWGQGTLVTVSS VL: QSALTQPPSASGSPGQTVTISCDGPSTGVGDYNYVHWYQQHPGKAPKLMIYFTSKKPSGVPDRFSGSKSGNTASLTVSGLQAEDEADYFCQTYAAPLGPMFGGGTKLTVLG , which is 59

Kindly note the recorded Kd for 04H1208-G1m/04L1086-lam1 (antibody, human IgG1, lambda, V domains shown) VH: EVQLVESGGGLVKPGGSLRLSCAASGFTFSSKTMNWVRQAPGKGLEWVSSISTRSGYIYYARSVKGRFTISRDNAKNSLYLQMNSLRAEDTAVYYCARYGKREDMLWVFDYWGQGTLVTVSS VL: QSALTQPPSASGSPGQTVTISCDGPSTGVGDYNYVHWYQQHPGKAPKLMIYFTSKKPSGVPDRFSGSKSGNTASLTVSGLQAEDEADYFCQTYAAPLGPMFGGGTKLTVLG , which is 74

Kindly note the recorded Kd for 04H1077-G1m/04L1034-lam1 (antibody, human IgG1, lambda, V domains shown) VH: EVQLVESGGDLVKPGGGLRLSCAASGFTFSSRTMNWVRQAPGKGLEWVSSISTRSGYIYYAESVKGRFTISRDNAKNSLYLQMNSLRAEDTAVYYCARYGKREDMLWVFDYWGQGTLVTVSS VL: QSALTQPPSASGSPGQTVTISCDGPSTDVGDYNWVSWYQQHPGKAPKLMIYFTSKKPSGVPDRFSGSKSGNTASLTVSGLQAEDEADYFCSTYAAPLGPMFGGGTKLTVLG , which is 320
